Data provenance is patent US20250197372A1.

molecular target: recombinant human GAA (acid alpha-glucosidase) (Homo sapiens); assay: Acid alpha-glucosidase (GAA) assay (4-methylumbelliferyl-alpha-D-pyranoside substrate, fluorescence)
// bucketize IC50: L = under 40 nM, M = from 40 nM up to 600 nM, H = 600 nM and over

compound	target_under_test	label_value
O=[N+]([O-])c1cc(C2=COCCO2)ccc1NCc1cccc(CN2C[C@H](O)[C@@H](O)[C@H](O)[C@H]2CO)c1	recombinant human GAA (acid alpha-glucosidase) (Homo sapiens)	M
[N-]=[N+]=Nc1ccc(NCCc2cc(CCN3C[C@H](O)[C@@H](O)[C@H](O)[C@H]3CO)ccc2C2CCCCC2)c([N+](=O)[O-])c1	recombinant human GAA (acid alpha-glucosidase) (Homo sapiens)	H
O=Cc1cc(NCCCCCCN2C[C@H](O)[C@@H](O)[C@H](O)[C@H]2CO)cc(-c2ncccn2)c1	recombinant human GAA (acid alpha-glucosidase) (Homo sapiens)	L
Cc1cc(CN2CCOCC2)cc(NCCCCCCN2C[C@H](O)[C@@H](O)[C@H](O)[C@H]2CO)c1	recombinant human GAA (acid alpha-glucosidase) (Homo sapiens)	M
COc1cc(NCCCCCCN2C[C@H](O)[C@@H](O)[C@H](O)[C@H]2CO)cc(C2CCCO2)c1 (some centres unmarked)	recombinant human GAA (acid alpha-glucosidase) (Homo sapiens)	M
[N-]=[N+]=Nc1ccc(NCCC23CC(CCN4C[C@H](O)[C@@H](O)[C@H](O)[C@H]4CO)(C2)C3)c([N+](=O)[O-])c1	recombinant human GAA (acid alpha-glucosidase) (Homo sapiens)	H
OC[C@@H]1[C@@H](O)[C@H](O)[C@@H](O)CN1CCCCCCNc1cc(Cl)cc(-c2ncco2)c1	recombinant human GAA (acid alpha-glucosidase) (Homo sapiens)	L
N#Cc1cc(NCc2cccc(CN3C[C@H](O)[C@@H](O)[C@H](O)[C@H]3CO)c2)cc(C2=COCCO2)c1	recombinant human GAA (acid alpha-glucosidase) (Homo sapiens)	H
O=[N+]([O-])c1cc(C2CC2)ccc1NCCCCCCN1C[C@H](O)[C@@H](O)[C@H](O)[C@H]1CO	recombinant human GAA (acid alpha-glucosidase) (Homo sapiens)	L
[N-]=[N+]=Nc1ccc(NCC/C=C/CCN2C[C@H](O)[C@@H](O)[C@H](O)[C@H]2CO)c([N+](=O)[O-])c1	recombinant human GAA (acid alpha-glucosidase) (Homo sapiens)	M
COc1ccc(CCCCCCCN2C[C@H](O)[C@@H](O)[C@H](O)[C@H]2CO)cc1	recombinant human GAA (acid alpha-glucosidase) (Homo sapiens)	M
OC[C@@H]1[C@@H](O)[C@H](O)[C@@H](O)CN1Cc1cccc(CNc2ccc(-c3ncccn3)cc2)c1	recombinant human GAA (acid alpha-glucosidase) (Homo sapiens)	H
O=[N+]([O-])c1cc(-c2cccnn2)ccc1NCc1cccc(CN2C[C@H](O)[C@@H](O)[C@H](O)[C@H]2CO)c1	recombinant human GAA (acid alpha-glucosidase) (Homo sapiens)	M
